Cited source: patent US20250051449A1

target: T1, mouse CD112R-hIgG4 fusion protein (mouse; human); assay: ELISA: coated antibody, titrated mouse CD112R-hIgG4, anti-IgG4 HRP
T1 construct: also called soluble mouse CD112R; soluble murine CD112R
Reported values of EC50 for individual entries
Write the value in µg/mL as a bare number.

INSERT INTO results (binder, readout_name, observed_result) VALUES
  ('Antibody 58 (antibody, V domains shown, Purified as IgG; compared with an IgG1 isotype control and detected with anti-human IgG Fc; also called antibody clone number 58; clone 58) VH: EVQLVESGGGLVQPGRSLRLSCTASGFTFGDYAMSWFRQAPGKGLEWVGFIGSKFYGGETEYTASVKGRFTISRDGSKSIAYLQMNSLKTEDTAVYYCARGPRRYTYGMDVWGQGTTVTVSS VL: DIQMTQSPSSLSASVGDRVTITCRASQSISSYLNWYQQKPGKAPKLLIYAASSLQSGVPSRFSGSGSGTDFTLTISSLQPEDFATYYCQQSSTPLTFGGGTKVEIK', 'EC50', 0.412),
  ('Antibody 46 (antibody, V domains shown, in the mouse tumor studies it was used as mouse IgG2a; also called antibody clone number 46; clone 46) VH: EVQLVESGGGLVQPGRSLRLSCTASGFTFGDYAMSWFRQAPGKGLEWVGFIGSKAYGGTTEYTASVKGRFTISRDGSKSIAYLQMNSLKTEDTAVYYCARGPRRYTYGMDVWGQGTTVTVSS VL: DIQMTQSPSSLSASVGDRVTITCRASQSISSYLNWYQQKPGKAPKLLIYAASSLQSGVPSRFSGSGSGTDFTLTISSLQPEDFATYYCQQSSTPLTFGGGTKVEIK', 'EC50', 0.181),
  ('Antibody 35 (antibody, V domains shown, Purified as IgG; compared with an IgG1 isotype control and detected with anti-human IgG Fc; also called antibody clone number 35; clone 35) VH: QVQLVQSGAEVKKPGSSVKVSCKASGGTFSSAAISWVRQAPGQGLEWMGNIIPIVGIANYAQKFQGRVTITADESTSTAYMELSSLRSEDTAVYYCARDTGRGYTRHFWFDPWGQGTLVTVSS VL: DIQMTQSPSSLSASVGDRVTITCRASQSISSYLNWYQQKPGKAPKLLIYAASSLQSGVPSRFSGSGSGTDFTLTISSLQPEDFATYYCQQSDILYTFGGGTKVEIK', 'EC50', 0.0215);

Which EC50 reading was recorded for the binder Antibody 34 (antibody, V domains shown, Purified as IgG; compared with an IgG1 isotype control and detected with anti-human IgG Fc; also called antibody clone number 34; clone 34) VH: QVQLVQSGAEVKKPGSSVKVSCKASGGTFSSAAISWVRQAPGQGLEWMGGIFPISGHANYAQKFQGRVTITADESTSTAYMELSSLRSEDTAVYYCARDTGRGYTRHFWFDPWGQGTLVTVSS VL: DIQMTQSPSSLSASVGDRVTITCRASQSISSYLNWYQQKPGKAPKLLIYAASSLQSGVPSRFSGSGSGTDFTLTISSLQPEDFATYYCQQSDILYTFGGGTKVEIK ?
0.0242
